Tested on: Brain
Experiment: Drug uptake in rat brain at 10 mg/kg, po
Format: ADME, organism-based
Set-up: dose 10 mg/kg, route oral
Conditions: in vivo, read-out: Drug uptake
MEASURED ATTRIBUTE: concentration

Problem: Returns the measured concentration for the input compound. Input: O=C(O)c1cc(-c2cccc(COc3ccc4c(=O)n(C5CCCC5)sc4c3)c2)ccc1Cl
Result: 4.8 µM

Problem: // lookup concentration for O=C(O)c1cc(-c2cccc(COc3ccc4c(c3)CN(C3CCCC3)C4=O)c2)ccc1Cl
Result: 3.8 µM

---

Can you tell me concentration for the items I'm about to list?
System: Plasma
Test: Drug uptake in rat plasma at 10 mg/kg, po
Type: ADME, organism-based
Parameters: dose 10 mg/kg, route oral
Details: in vivo
Include the unit after the number when you answer.

Problem: Find the recorded concentration belonging to O=C(O)c1cc(-c2cccc(COc3ccc4c(c3)CN(C3CCCC3)C4=O)c2)ccc1Cl and report it.
Result: 12300 nM

Problem: Given the compound Cc1c(OCc2cccc(-c3ccc(C(=O)O)cc3)c2)cc2c(c1C)C(=O)C(C1CCCC1)C2 (stereo not drawn) , what is its reported concentration?
Result: 27 nM

Problem: Given the entry O=C(O)c1cc(-c2cccc(COc3ccc4c(=O)n(C5CCCC5)sc4c3)c2)ccc1Cl , report its measured concentration.
Result: 1000 nM
